Measured composite z-score, listed per entry.
- Test system: Plasmodium falciparum Sir2 (PF13_0152, Sir2A)
- method: pfSir2 binders on small-molecule microarrays, primary screen, biochemical, small-molecule microarray, 635 nm fluorescence (AID 1098);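 note: score merges spot fluorescence intensity with its signal-to-noise ratio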
- condition_info: small-molecule microarray binding, fluorescence 635 nm; higher = more signal
Answer with the value's number alone.

Worked cases, composite z-score given:
**Query** Recall the reported composite z-score of CCOC(=O)NN=C1C[C@@H](O)[C@@H](O)[C@@H]2[C@@H]3C(=O)N(C4CCCCC4)C(=O)[C@@H]3CC[C@H]12 when tested on Plasmodium falciparum Sir2 (PF13_0152, Sir2A).
**Result** 0.253

**Query** Recall the reported composite z-score of CCOC(=O)C1=CC[C@H]2C(=O)N(CC)C(=O)[C@@H]12 when tested on Plasmodium falciparum Sir2 (PF13_0152, Sir2A).
**Result** 0.762

**Query** Recall the reported composite z-score of CCOC(=O)[C@H](Cc1ccccc1)NC(=O)CCC1CC(OC(=O)NCCc2ccc(F)cc2)CC2(CCCC(COC(=O)NCC(c3ccccc3)c3ccccc3)O2)O1 (some centres not stated) when tested on Plasmodium falciparum Sir2 (PF13_0152, Sir2A).
**Result** 0.892

**Query** Recall the reported composite z-score of CN1C(=O)C2C=CC(C(O)c3ccc(Br)cc3)N(N(c3ccccc3)c3ccccc3)C2C1=O (configuration not stated) when tested on Plasmodium falciparum Sir2 (PF13_0152, Sir2A).
**Result** 0.259

**Query** Recall the reported composite z-score of CCN1C(=O)[C@H]2[C@H]3[C@H](O)[C@H](O)CC(=NOCc4ccccc4)[C@H]3CC[C@H]2C1=O when tested on Plasmodium falciparum Sir2 (PF13_0152, Sir2A).
**Result** 0.18

***
**Query** Recall the reported composite z-score of O=C1CCCC2OC12C(O)CCc1ccccc1 (configuration not stated) when tested on Plasmodium falciparum Sir2 (PF13_0152, Sir2A).
**Result** -0.2

**Query** Recall the reported composite z-score of CC[C@@H](c1ccccc1)n1c(=O)n2n(c1=O)[C@H]1[C@H](O)[C@@H]3O[C@@H]3C(=NOCC(C)C)[C@H]1CC2 when tested on Plasmodium falciparum Sir2 (PF13_0152, Sir2A).
**Result** 0.315

**Query** Recall the reported composite z-score of C[C@@H](c1ccccc1)N1C(=O)[C@H]2[C@H]3[C@H](O)[C@H](O)CC(=NOC[C@@H](O)COCc4ccco4)[C@@H]3CC[C@H]2C1=O when tested on Plasmodium falciparum Sir2 (PF13_0152, Sir2A).
**Result** 0.693

**Query** Recall the reported composite z-score of O=C1c2ccccc2[C@@]2(Cc3ccccc3N(C3CC3)C2=O)[C@H](c2ccc(CO)cc2)N1Cc1ccccc1C(F)(F)F when tested on Plasmodium falciparum Sir2 (PF13_0152, Sir2A).
**Result** -0.0922

**Query** Recall the reported composite z-score of CCc1cc2c(nc1CC)CCN(CCC(C)=NOC[C@@H](O)[C@H]1O[C@@H]3OC(C)(C)O[C@@H]3[C@H]1O)C2 when tested on Plasmodium falciparum Sir2 (PF13_0152, Sir2A).
**Result** 0.569

**Query** Recall the reported composite z-score of COC(=O)CC1OC1[C@H](C)[C@@H](OC)C(C)C (some centres not stated) when tested on Plasmodium falciparum Sir2 (PF13_0152, Sir2A).
**Result** 0.505

**Query** Recall the reported composite z-score of CO[C@@H]1COC(=O)CC=C[C@@H](C)COC(=O)[C@H](COCc2ccccc2)NC(=O)CC=C[C@H]1C when tested on Plasmodium falciparum Sir2 (PF13_0152, Sir2A).
**Result** 1.49

###

- method: basal RPMI8226 viability, no added stimulus, profiling panel, cell-based, calcein-AM fluorescence, 48 h, PK04 Diversity Set (AID 1166);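 note: cells grown under basal conditions without added stimulus; test concentration not given here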
- condition_info: RPMI8226 myeloma viability, higher = more signal
attribute_measured: z-score
Answer with the value's number alone.

Worked cases, z-score given:
**Query** For the compound CC(C)NC(=O)[C@@]1(c2ccc([N+](=O)[O-])cc2)CC(=O)N(CC23CC4CC(CC(C4)C2)C3)[C@@H]1c1ccc(CO)cc1I , report z-score.
**Result** -4.29

**Query** For the compound CCOC(=O)[C@H](CC(C)C)NC(=O)CCC1CC(OC(=O)NCc2cccc3ccccc23)CC2(CCCC(COC(=O)NCCN3CCOCC3)O2)O1 (stereo not given in full) , report z-score.
**Result** -0.275

**Query** For the compound CC(C)OC(=O)C=C1C[C@@H](c2ccc(C#N)cc2)O[C@@H](c2ccc(C#N)cc2)O1 , report z-score.
**Result** -0.69

**Query** For the compound COc1ccc(COC(=O)NN=C2C[C@@H](O)[C@@H](O)[C@@H]3[C@@H]4C(=O)N(c5ccc(F)cc5F)C(=O)[C@@H]4CC[C@@H]23)cc1 , report z-score.
**Result** -0.952

***
**Query** For the compound CC(CCN1CCc2nc(-c3ccccc3)c(-c3ccccc3)cc2C1)=NO[C@H](C)c1cn([C@@H]2COC[C@H]2O)nn1 , report z-score.
**Result** -0.283

**Query** For the compound CO[C@@H]1COC(=O)CC=C[C@@H](C)[C@H](OC)COC(=O)[C@H](COCc2ccccc2)NC(=O)CC=C[C@H]1C , report z-score.
**Result** 0.651

**Query** For the compound CC(=O)C[C@H](O)[C@@H](NC(=O)OC(C)(C)C)C(C)C , report z-score.
**Result** -0.531

**Query** For the compound COc1cccc([C@H]2Oc3ccc(OC)cc3C(=NO[C@H](C)c3cn([C@@H]4COC[C@H]4O)nn3)[C@@H]2O)c1 , report z-score.
**Result** -0.786

###

- study_target: Torsin-1A (Homo sapiens) (UniProt O14656)
- Sequence (O14656 whole entry, looked up): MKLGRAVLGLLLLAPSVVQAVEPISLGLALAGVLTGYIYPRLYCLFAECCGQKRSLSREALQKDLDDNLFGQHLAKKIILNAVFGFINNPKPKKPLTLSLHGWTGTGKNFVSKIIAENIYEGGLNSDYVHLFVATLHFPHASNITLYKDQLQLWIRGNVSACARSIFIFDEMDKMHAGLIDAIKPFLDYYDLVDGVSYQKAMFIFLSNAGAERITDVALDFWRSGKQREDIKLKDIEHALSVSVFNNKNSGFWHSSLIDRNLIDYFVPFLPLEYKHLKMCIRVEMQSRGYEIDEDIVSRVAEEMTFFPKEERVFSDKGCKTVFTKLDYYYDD
- method: small-molecule binders of mutant TOR1A in lysate, primary screen, cell lysate, small-molecule microarray, COS7 lysate, 635/667 nm fluorescence (AID 1150);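 note: score pools 667 nm emission and signal to noise measuring lysate protein binding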
- condition_info: COS7 hTOR1A mutant lysate, 635 nm fluorescence, higher = more signal
attribute_measured: composite z-score

Worked cases, composite z-score given:
**Query** For the molecule C=CC[C@@H]1C=C[C@H](ON=C(C)CCN2CCc3nc(CC)c(CC)cc3C2)[C@@H](CO)O1 , report composite z-score.
**Result** 1.12

**Query** For the molecule CC(C)NC(=O)[C@@]1(c2ccc([N+](=O)[O-])cc2)CC(=O)N(CC23CC4CC(CC(C4)C2)C3)[C@@H]1c1ccc(CO)cc1I , report composite z-score.
**Result** 0.369

**Query** For the molecule COC(=O)[C@@H]1CCCN1C(=O)[C@@H](C)CO , report composite z-score.
**Result** 0.546

**Query** For the molecule COC(=O)[C@H](C)NC(=O)CCC1CC(OC(=O)NCc2cccc3ccccc23)CC2(CCCC(COC(=O)NCC3CCCCC3)O2)O1 (some centres not stated) , report composite z-score.
**Result** 1.05

**Query** For the molecule C=CCC(OC(C)=O)[C@@H]1[C@@H](N(Cc2cc3ccccc3o2)C(=O)Cc2ccc(F)cc2)c2cc(OCCCO)ccc2N1C(=O)Cc1ccc(OC)cc1 (some centres not stated) , report composite z-score.
**Result** -0.522

***
**Query** For the molecule CC(C)N1CC=CC23O[C@@H]4C=CCCOC(=O)C4[C@H]2C(=O)N(CCCCCCO)[C@@H]3C1=O (some centres not stated) , report composite z-score.
**Result** -1.57

**Query** For the molecule C=CCOC(=O)[C@H]1[C@@H]2C(=O)O[C@@H](c3ccccc3)[C@@H](c3ccccc3)N2[C@@H](c2ccc(OCCOC(=O)[C@H]3C[C@H]4C(=O)N[C@@H](Cc5ccccc5)C(=O)N4[C@H]3c3ccc(O)cc3)cc2)[C@]12C(=O)Nc1ccccc12 , report composite z-score.
**Result** 0.278

###

Measured z-score, listed per entry.
- method: S. cerevisiae growth modulation with rapamycin, primary screen, strain BY4716, OD600, 96 h (AID 1091); note: test concentration not given here
- condition_info: higher = more signal, called active from +8 up or from −8 down
Answer with the value's number alone.

Worked cases, z-score given:
**Query** For the compound CN(C)CCCNC(=O)[C@@H]1c2ccccc2C(=O)N(Cc2cc(F)cc(C(F)(F)F)c2)[C@H]1c1ccc(CO)cc1 , report z-score.
**Result** -0.917

**Query** For the compound CCc1cc2c(nc1CC)CCN(CCC(C)=NOC[C@@H](O)COCc1ccco1)C2 , report z-score.
**Result** -0.935

**Query** For the compound C[C@@H](c1ccccc1)N1C(=O)[C@H]2[C@H]3[C@H](O)C=CC(=O)[C@@H]3CC[C@H]2C1=O , report z-score.
**Result** -0.402

**Query** For the compound COC(=O)[C@@]1(Cc2ccccc2)[C@H]2c3cc(C(=O)N4CCCC4)n(Cc4ccccn4)c3C[C@H]2CN1C(=O)c1ccccc1 , report z-score.
**Result** 0.513

**Query** For the compound Cc1cc2c(c(=O)o1)[C@H](O)[C@H]1O[C@H]1C2=O , report z-score.
**Result** -0.643

***
**Query** For the compound NCCCCCNC(=O)[C@@H]1C[C@@H]2C(=O)N3CCC[C@H]3C(=O)N2[C@@H]1c1cccc(OCCO)c1 , report z-score.
**Result** -0.652

**Query** For the compound O=C1[C@H]2[C@H]3[C@H](O)[C@H](O)CC(=NOC[C@@H](O)COCc4ccco4)[C@H]3CC[C@H]2C(=O)N1C1CCCCC1 , report z-score.
**Result** 0.356

**Query** For the compound CCOC(=O)NN=C1C[C@@H](O)[C@@H](O)[C@@H]2[C@@H]3C(=O)N(C[C@@H]4CCCO4)C(=O)[C@@H]3CC[C@@H]12 , report z-score.
**Result** 0.256
